# measurement.protocol: AUC (0 to t) in Sprague-Dawley rat at 25 mg/kg, po by LC/MS method
# Format: ADME, organism-based
# test.settings: in vivo
metric.name: AUC(0-t) (ng·h/mL)
Give bare numbers, in ng·h/mL.

>  <structure.as.smiles>
COc1cc2c(cc1-c1c(C)noc1C)[nH]c1ncnc(-c3c(C)[nH]c4ccccc34)c12

>  <AUC(0-t) (ng·h/mL)>
13400

$$$$

With those in mind, consider the next compound.
Exam item: Which AUC(0-t) is listed for COc1cc2c(cc1-c1c(C)noc1C)[nH]c1nc(C)nc(-c3ccnc4ccccc34)c12 ?
Marked response: 29500

====

# system.name: Bromodomain-containing protein 2 (Homo sapiens, UniProt P25440)
# Sequence (P25440 whole entry, the tested form may be a part, canonical isoform): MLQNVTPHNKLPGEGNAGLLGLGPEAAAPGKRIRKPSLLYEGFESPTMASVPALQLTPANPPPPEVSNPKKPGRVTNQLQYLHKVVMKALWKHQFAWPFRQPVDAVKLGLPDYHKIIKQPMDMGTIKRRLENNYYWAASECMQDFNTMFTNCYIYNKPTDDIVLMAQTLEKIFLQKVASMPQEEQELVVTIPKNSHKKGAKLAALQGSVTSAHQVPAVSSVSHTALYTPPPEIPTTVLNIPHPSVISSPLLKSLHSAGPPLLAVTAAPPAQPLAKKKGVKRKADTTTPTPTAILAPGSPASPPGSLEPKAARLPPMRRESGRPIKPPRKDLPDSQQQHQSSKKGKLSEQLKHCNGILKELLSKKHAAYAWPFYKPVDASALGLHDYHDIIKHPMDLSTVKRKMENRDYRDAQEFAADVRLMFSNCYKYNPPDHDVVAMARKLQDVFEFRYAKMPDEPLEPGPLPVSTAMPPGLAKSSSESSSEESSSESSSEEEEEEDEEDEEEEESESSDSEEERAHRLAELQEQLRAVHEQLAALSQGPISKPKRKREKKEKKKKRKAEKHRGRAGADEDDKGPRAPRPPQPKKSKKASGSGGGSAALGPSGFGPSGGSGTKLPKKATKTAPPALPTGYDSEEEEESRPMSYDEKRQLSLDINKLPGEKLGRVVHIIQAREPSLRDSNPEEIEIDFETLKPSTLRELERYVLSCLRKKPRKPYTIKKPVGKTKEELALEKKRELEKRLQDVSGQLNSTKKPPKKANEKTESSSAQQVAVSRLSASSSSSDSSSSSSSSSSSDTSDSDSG
# measurement.protocol: Binding affinity to human partial length BRD2 bromodomain 1/2 isoform 1 (K71 to D455 residues) by BROMOscan assay
metric.name: Kd (nM)
Answers are plain numbers, in nM.

Exam item: Hi! What's the reported Kd for COc1cc2c(cc1-c1c(C)noc1C)[nH]c1nc(C)nc(-c3ccnc4ccccc34)c12 on Bromodomain-containing protein 2 (Homo sapiens, UniProt P25440)?
Marked response: 1.1

====

# measurement.protocol: Oral bioavailability in SCID mouse at 25 mg/kg by LC/MS method
# Format: ADME, organism-based
# test.settings: in vivo
metric.name: bioavailability (%)
Give bare numbers, in %.

Exam item: Which bioavailability is listed for COc1cc2c(cc1-c1c(C)noc1C)[nH]c1nc(C)nc(-c3ccnc4ccccc34)c12 ?
Marked response: 50

====

Provide the recorded Cmax for the entries that follow.
# measurement.protocol: Cmax in Sprague-Dawley rat at 25 mg/kg, po by LC/MS method
# Assay type: ADME, organism-based
# Design: dose 25 mg/kg, route oral
# test.settings: in vivo
Give bare numbers, in ng/mL.

>  <structure.as.smiles>
COc1cc2c(cc1-c1c(C)noc1C)[nH]c1nc(C)nc(-c3ccnc4ccccc34)c12

>  <measurement>
7330

$$$$

Exam item: Which Cmax is listed for COc1cc2c(cc1-c1c(C)noc1C)[nH]c1ncnc(-c3c(C)[nH]c4ccccc34)c12 ?
Marked response: 1400

====

Provide the recorded IC50 for the entries that follow.
# system.name: Bromodomain-containing protein 4 (Homo sapiens, UniProt O60885)
# measurement.protocol: Inhibition of FAM-labeled ZBA248 binding to recombinant human N-terminal His6-tagged BRD4 bromodomain 2 (333 to 460 residues) expressed in Rosetta2 DE3 cells after 30 mins by Flourescence polarization assay
# Assay type: biochemical

Sample records with IC50:
>  <structure.as.smiles>
COc1cc2c(cc1-c1c(C)noc1C)[nH]c1nc(C)nc(-c3cc(C(F)(F)F)nc4ccccc34)c12

>  <system.name>
Bromodomain-containing protein 4 (Homo sapiens, UniProt O60885)

>  <metric.name>
IC50

>  <measurement>
92.7 nM

$$$$
>  <structure.as.smiles>
COc1cc2c(cc1-c1c(C)noc1C)[nH]c1ncnc(-c3c[nH]c4ccccc34)c12

>  <system.name>
Bromodomain-containing protein 4 (Homo sapiens, UniProt O60885)

>  <metric.name>
IC50

>  <measurement>
5.5 nM

$$$$
>  <structure.as.smiles>
COc1cc2c(cc1-c1c(C)noc1C)[nH]c1ncnc(-n3nnc4ccccc43)c12

>  <system.name>
Bromodomain-containing protein 4 (Homo sapiens, UniProt O60885)

>  <metric.name>
IC50

>  <measurement>
> 1000 nM

$$$$
>  <structure.as.smiles>
COc1cc2c(cc1-c1c(C)noc1C)[nH]c1ncnc(N[C@H](C)c3ccccn3)c12

>  <system.name>
Bromodomain-containing protein 4 (Homo sapiens, UniProt O60885)

>  <metric.name>
IC50

>  <measurement>
26.4 nM

$$$$

Exam item: Hi! What's the reported IC50 for COc1cc2c(cc1-c1c(C)noc1C)[nH]c1nc(C)nc(-c3cccc4cccnc34)c12 on Bromodomain-containing protein 4 (Homo sapiens, UniProt O60885)?
Marked response: 193 nM
